Provenance of the data: patent US12528812B2

Below, each entry is listed with its recorded pKi.
Target: Recombinant human JAK2 kinase domain protein (Residues 812-1132) (Homo sapiens, UniProt O60674)
Sequence (O60674 812-1132): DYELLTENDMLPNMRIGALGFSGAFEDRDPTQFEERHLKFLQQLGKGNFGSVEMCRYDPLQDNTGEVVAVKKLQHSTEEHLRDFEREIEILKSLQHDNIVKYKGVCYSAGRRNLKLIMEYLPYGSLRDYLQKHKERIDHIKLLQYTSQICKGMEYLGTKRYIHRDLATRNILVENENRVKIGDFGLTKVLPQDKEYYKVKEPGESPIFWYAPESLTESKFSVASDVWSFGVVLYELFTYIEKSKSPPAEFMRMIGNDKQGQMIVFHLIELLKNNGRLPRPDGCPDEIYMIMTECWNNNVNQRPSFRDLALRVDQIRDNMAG
Test: JAK2 biochemical assay (LabChip mobility shift, Ki)
Conditions: Biochem JAK2 Ki
Please keep in mind that pKi is minus log10 of the molar concentration; only the number is needed.

Cn1cc(NC(=O)c2cnn3cccnc23)c(-c2cc(Oc3cccc(CNCCN4CCOCC4)c3)ccc2OC(F)F)n1; 8.80
CN(C)C(=O)c1ccc(Oc2ccc(OC(F)F)c(-c3nn(C4COC4)cc3NC(=O)c3cnn4cccnc34)c2)cc1; 9.41

Req: Bench note: what pKi did Cn1cc(NC(=O)c2cnn3cccnc23)c(-c2cc(Oc3cnn([C@@H]4CNCC[C@H]4O)c3)ccc2OC(F)F)n1 (stereo in doubt) show?
Resp: 9.64

Req: If you can, please state the reported pKi value of CN(C)[C@H]1CCN(C(=O)c2cccc(Oc3ccc(OC(F)F)c(-c4nn(C)cc4NC(=O)c4cnn5cccnc45)c3)c2)C1 (racemic) .
Resp: 9.02

Req: Item Cn1cc(NC(=O)c2cnn3cccnc23)c(-c2cc(Oc3ccc(CN4CCC[C@@H](O)C4)cc3)ccc2OC(F)F)n1 (racemic) has what recorded pKi?
Resp: 9.43

Req: Recorded pKi for Cn1cc(NC(=O)c2cnn3cccnc23)c(-c2cc(Oc3cccc(CN4CCOC[C@@H]4CO)c3)ccc2OC(F)F)n1 (racemic) , please?
Resp: 9.19
